Tested on: ATP;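 further: ATP exposure 15 min at 22 °C before imaging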
Test: switch fluorescence ratio, 500 uM ATP over buffer (Cy3 cluster intensity, sum of 5 cycles each) (fold (ratio)); higher = stronger signal-on switching upon ATP binding; sequences stand for … in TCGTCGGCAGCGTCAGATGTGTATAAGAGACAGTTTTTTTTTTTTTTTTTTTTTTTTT…TC
Settings: aptamer strand: ATP DNA aptamer (quencher-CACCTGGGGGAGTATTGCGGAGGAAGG + anchor), 100 nM annealed; ATP concentration: 500 uM
Endpoint label: switch fluorescence ratio
Number only, please.

Sample answers from the record:
TATTAAGATA: 0.987
TCGATAGACG: 1.02

*Q* Request the reported switch fluorescence ratio associated with "GATTAATTTT"
*A* 1.02

----------
In this section we review reported switch fluorescence ratio values for a set of sequences.
Test system: ATP;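 further: ATP exposure 15 min at 22 °C before imaging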
Assay: switch fluorescence ratio, 500 uM ATP over buffer (Cy3 cluster intensity, sum of 5 cycles each) (fold (ratio)); higher = stronger signal-on switching upon ATP binding; sequences stand for … in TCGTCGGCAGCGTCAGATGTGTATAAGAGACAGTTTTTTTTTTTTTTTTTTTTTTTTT…TC
Details: aptamer strand: ATP DNA aptamer (quencher-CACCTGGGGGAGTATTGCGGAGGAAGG + anchor), 100 nM annealed; ATP concentration: 500 uM
Number only, please.

AGGTACGATT: 1.02
AGGTGTACTG: 1.03
TCACTATATT: 1.08
AGGAGTATGG: 1.02
GTTCCCAGTT: 0.997
ACAGCAGGGC: 1.07
TTTTGGGCAG: 0.971
CCCGTAGGCT: 0.973
GAGGCAGAAT: 1.03
CTGGGGTTGG: 0.968

*Q* Request the reported switch fluorescence ratio associated with "CAGGGGGTGT"
*A* 1.03

----------
System: ATP;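 further: ATP exposure 15 min at 22 °C before imaging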
Experiment: switch fluorescence ratio, 500 uM ATP over buffer (Cy3 cluster intensity, sum of 5 cycles each) (fold (ratio)); higher = stronger signal-on switching upon ATP binding; sequences stand for … in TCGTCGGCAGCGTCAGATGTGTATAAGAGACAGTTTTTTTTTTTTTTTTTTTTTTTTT…TC
Conditions: aptamer strand: ATP DNA aptamer (quencher-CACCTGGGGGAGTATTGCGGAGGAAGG + anchor), 100 nM annealed; ATP concentration: 500 uM
Endpoint label: switch fluorescence ratio
Number only, please.

*Q* Request the reported switch fluorescence ratio associated with "TTCAAGTTAG"
*A* 1

*Q* Request the reported switch fluorescence ratio associated with "GGGATAAGTT"
*A* 0.983

*Q* Request the reported switch fluorescence ratio associated with "TGGTGTGGAA"
*A* 0.981

*Q* Request the reported switch fluorescence ratio associated with "AACGCGGCTG"
*A* 0.997

*Q* Request the reported switch fluorescence ratio associated with "AGGGGGCCTT"
*A* 1.01

*Q* Request the reported switch fluorescence ratio associated with "GCGTTGGGGC"
*A* 1

----------
In this section we review reported switch fluorescence ratio values for a set of sequences.
Tested on: ATP;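 further: ATP exposure 15 min at 22 °C before imaging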
Test: switch fluorescence ratio, 500 uM ATP over buffer (Cy3 cluster intensity, sum of 5 cycles each) (fold (ratio)); higher = stronger signal-on switching upon ATP binding; sequences stand for … in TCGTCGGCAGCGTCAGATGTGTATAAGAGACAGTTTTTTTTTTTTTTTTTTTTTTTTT…TC
Conditions: aptamer strand: ATP DNA aptamer (quencher-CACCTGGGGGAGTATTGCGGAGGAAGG + anchor), 100 nM annealed; ATP concentration: 500 uM
Number only, please.

GGAGGGGTTT: 1.01

Next, consider the following sequence.
*Q* Request the reported switch fluorescence ratio associated with "AGGTTGTTAA"
*A* 1.01

----------
Test system: ATP;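 further: ATP exposure 15 min at 22 °C before imaging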
Assay: switch fluorescence ratio, 500 uM ATP over buffer (Cy3 cluster intensity, sum of 5 cycles each) (fold (ratio)); higher = stronger signal-on switching upon ATP binding; sequences stand for … in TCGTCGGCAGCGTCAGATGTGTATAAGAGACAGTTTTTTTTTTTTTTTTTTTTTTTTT…TC
Settings: aptamer strand: ATP DNA aptamer (quencher-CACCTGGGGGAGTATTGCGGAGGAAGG + anchor), 100 nM annealed; ATP concentration: 500 uM
In this section we review reported switch fluorescence ratio values for a set of sequences.

TTTAACCAAT: 1.02
ACGACTGGGG: 1.02
CGGGGAGGGA: 1.03

*Q* Request the reported switch fluorescence ratio associated with "GCATAATGGG"
*A* 1.01

----------
Tested on: ATP;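 further: ATP exposure 15 min at 22 °C before imaging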
Assay: switch fluorescence ratio, 500 uM ATP over buffer (Cy3 cluster intensity, sum of 5 cycles each) (fold (ratio)); higher = stronger signal-on switching upon ATP binding; sequences stand for … in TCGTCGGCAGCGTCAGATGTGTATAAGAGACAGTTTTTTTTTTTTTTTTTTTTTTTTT…TC
Conditions: aptamer strand: ATP DNA aptamer (quencher-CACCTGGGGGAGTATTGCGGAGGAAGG + anchor), 100 nM annealed; ATP concentration: 500 uM
Endpoint label: switch fluorescence ratio
Number only, please.

*Q* Request the reported switch fluorescence ratio associated with "GTTGTTACGG"
*A* 1.01

*Q* Request the reported switch fluorescence ratio associated with "ATCACGGGAT"
*A* 1.02

*Q* Request the reported switch fluorescence ratio associated with "GAGCTATTCG"
*A* 1.01

*Q* Request the reported switch fluorescence ratio associated with "CATGTTTTTG"
*A* 1

*Q* Request the reported switch fluorescence ratio associated with "TGTTAAATGT"
*A* 1

*Q* Request the reported switch fluorescence ratio associated with "AAATGGTGTC"
*A* 1.01

*Q* Request the reported switch fluorescence ratio associated with "CTTGTGAGTT"
*A* 0.979

*Q* Request the reported switch fluorescence ratio associated with "TGATGCGGAT"
*A* 1.02

*Q* Request the reported switch fluorescence ratio associated with "TGCTTCGTGC"
*A* 0.996

*Q* Request the reported switch fluorescence ratio associated with "AGAGAAAGTA"
*A* 0.988

*Q* Request the reported switch fluorescence ratio associated with "CGAGTAGGGA"
*A* 0.995

*Q* Request the reported switch fluorescence ratio associated with "GGGGTAGTTT"
*A* 1.02

*Q* Request the reported switch fluorescence ratio associated with "GCTAGAAAGA"
*A* 0.972

*Q* Request the reported switch fluorescence ratio associated with "ATGGGGGACA"
*A* 0.981

*Q* Request the reported switch fluorescence ratio associated with "AGGGGTTAGT"
*A* 0.999

*Q* Request the reported switch fluorescence ratio associated with "TTGGGGTTAG"
*A* 0.988

----------
Test system: ATP;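 further: ATP exposure 15 min at 22 °C before imaging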
Test: switch fluorescence ratio, 500 uM ATP over buffer (Cy3 cluster intensity, sum of 5 cycles each) (fold (ratio)); higher = stronger signal-on switching upon ATP binding; sequences stand for … in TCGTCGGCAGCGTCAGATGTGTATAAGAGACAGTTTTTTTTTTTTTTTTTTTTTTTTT…TC
Conditions: aptamer strand: ATP DNA aptamer (quencher-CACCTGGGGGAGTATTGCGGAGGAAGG + anchor), 100 nM annealed; ATP concentration: 500 uM
In this section we review reported switch fluorescence ratio values for a set of sequences.
Number only, please.

Sample answers from the record:
GGGCCGTTGG: 0.976
CACGTGGGGG: 1.01
GCTGGTTTTG: 0.972

*Q* Request the reported switch fluorescence ratio associated with "GTATTTTGGG"
*A* 0.996

*Q* Request the reported switch fluorescence ratio associated with "TAGAAACGCG"
*A* 0.983

*Q* Request the reported switch fluorescence ratio associated with "TTAATTTTTC"
*A* 1.02

----------
System: ATP;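 further: ATP exposure 15 min at 22 °C before imaging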
Test: switch fluorescence ratio, 500 uM ATP over buffer (Cy3 cluster intensity, sum of 5 cycles each) (fold (ratio)); higher = stronger signal-on switching upon ATP binding; sequences stand for … in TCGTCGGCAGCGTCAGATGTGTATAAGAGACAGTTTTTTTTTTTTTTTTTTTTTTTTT…TC
Conditions: aptamer strand: ATP DNA aptamer (quencher-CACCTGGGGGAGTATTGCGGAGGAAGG + anchor), 100 nM annealed; ATP concentration: 500 uM
Endpoint label: switch fluorescence ratio
Number only, please.

*Q* Request the reported switch fluorescence ratio associated with "GGATTATTG"
*A* 0.98

*Q* Request the reported switch fluorescence ratio associated with "ACTGCGTGAT"
*A* 1.05

*Q* Request the reported switch fluorescence ratio associated with "GAGTGGTCGC"
*A* 1

*Q* Request the reported switch fluorescence ratio associated with "GACAGGGATT"
*A* 1.1

*Q* Request the reported switch fluorescence ratio associated with "TTTCTGTGAT"
*A* 1

*Q* Request the reported switch fluorescence ratio associated with "TGGCGGTATA"
*A* 0.993

*Q* Request the reported switch fluorescence ratio associated with "ACCCTGGACA"
*A* 1.01

*Q* Request the reported switch fluorescence ratio associated with "AGGGGCAGAG"
*A* 1.06

*Q* Request the reported switch fluorescence ratio associated with "GTTTGTACAC"
*A* 0.986

----------
System: ATP;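 further: ATP exposure 15 min at 22 °C before imaging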
Experiment: switch fluorescence ratio, 500 uM ATP over buffer (Cy3 cluster intensity, sum of 5 cycles each) (fold (ratio)); higher = stronger signal-on switching upon ATP binding; sequences stand for … in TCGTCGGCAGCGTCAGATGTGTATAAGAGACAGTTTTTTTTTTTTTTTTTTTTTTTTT…TC
Details: aptamer strand: ATP DNA aptamer (quencher-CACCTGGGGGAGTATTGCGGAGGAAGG + anchor), 100 nM annealed; ATP concentration: 500 uM
Endpoint label: switch fluorescence ratio
Number only, please.

*Q* # value lookup — system ATP, readout switch fluorescence ratio, item "TGTTCATATA"
*A* 1.01

*Q* # value lookup — system ATP, readout switch fluorescence ratio, item "ATGAGAACTC"
*A* 1.02

*Q* # value lookup — system ATP, readout switch fluorescence ratio, item "CGCTTAAGAG"
*A* 1.02

*Q* # value lookup — system ATP, readout switch fluorescence ratio, item "CAGAATTGTG"
*A* 1.02

*Q* # value lookup — system ATP, readout switch fluorescence ratio, item "TTGCATTAAG"
*A* 0.996

*Q* # value lookup — system ATP, readout switch fluorescence ratio, item "GATAATTGTA"
*A* 0.982

*Q* # value lookup — system ATP, readout switch fluorescence ratio, item "TTATTTGGGG"
*A* 1.01

*Q* # value lookup — system ATP, readout switch fluorescence ratio, item "CAGCGATTTA"
*A* 1.02

*Q* # value lookup — system ATP, readout switch fluorescence ratio, item "GGATAGGGTA"
*A* 0.974

*Q* # value lookup — system ATP, readout switch fluorescence ratio, item "CCATGTGTG"
*A* 1.02
